# reported inhibition at 1 µM; entries follow
Molecular target: GST-tagged ROR gamma ligand binding domain (LBD) (Homo sapiens)
Construct: purchased Invitrogen
Sequence (P51449 269-508 limits assumed): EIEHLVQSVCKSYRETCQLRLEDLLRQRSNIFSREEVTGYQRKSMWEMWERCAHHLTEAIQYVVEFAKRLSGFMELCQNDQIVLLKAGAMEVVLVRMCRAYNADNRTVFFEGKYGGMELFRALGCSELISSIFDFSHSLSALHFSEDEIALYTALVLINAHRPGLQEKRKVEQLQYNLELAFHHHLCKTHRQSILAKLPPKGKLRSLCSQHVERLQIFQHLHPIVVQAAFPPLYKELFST
Assay: TR-FRET assay for ROR gamma (LanthaScreen co-activator peptide recruitment)
Assay type: biochemical
Settings: compound 1 μM; TR-FRET ratio 520/495, percent of control
metric-name: inhibition at 1 µM

>>> df
                                     smiles  result
0  CCS(=O)(=O)c1ccc(CC(=O)Nc2ccc(OC3(c4ccc(Cl)c(F)c4)CCNCC3)cc2)cc1   27.3%
1  CCn1c(C(C)(C)Oc2cc(F)c(F)cc2F)nc2cc(NC(=O)Cc3ccc(S(=O)(=O)CC)cc3)ccc21   91.5%
2  CCS(=O)(=O)c1ccc(CC(=O)Nc2ccc(C#CC(C)(C)Oc3ccc(F)cc3Cl)cc2)cc1   70.5%
3  CCS(=O)(=O)c1ccc(CC(=O)Nc2ccc(OC3(c4ccc(Cl)cc4Cl)COC3)cc2)cc1   90.3%

----------
Target: GST-tagged ROR gamma ligand binding domain (LBD) (Homo sapiens, UniProt P51449)
Construct: purchased Invitrogen
Assay: TR-FRET assay for ROR gamma (LanthaScreen co-activator peptide recruitment)
Format: biochemical
Settings: compound 1 μM; TR-FRET ratio 520/495, percent of control
# reported inhibition at 1 µM; entries follow
metric-name: inhibition at 1 µM (%)

>>> print(df.to_string())
                                      smiles  recorded_number
 0  CCS(=O)(=O)c1ccc(CC(=O)Nc2ccc(C#CC(C)(C)Oc3ccc(Cl)c(Cl)c3)cc2)cc1             86.3
 1  CCS(=O)(=O)c1ccc(CC(=O)Nc2ccc(OC3(c4ccc(Cl)c(F)c4)CC3)c(F)c2)cc1             79.4
 2  CCn1c(C(C)(C)Oc2ccc(NC(=O)Cc3ccc(S(=O)(=O)CC)cc3)cc2)nc2ccc(F)cc21             88.9
 3  CCS(=O)(=O)c1ccc(CC(=O)Nc2ccc(C#CC(C)(C)Oc3cc(F)c(F)cc3F)cc2)cc1             73.6
 4  CCS(=O)(=O)c1ccc(CC(=O)Nc2ccc3c(c2)nc(C(C)(C)Oc2ccc(F)cc2F)n3CC2CC2)cc1             78.9
 5  CCn1c(C(C)(C)Oc2ccc(Cl)cc2Cl)nc2cc(NC(=O)Cc3ccc(S(=O)(=O)CC)cc3)ccc21             90.6
 6  CCn1c(C(C)(C)Oc2ccc(NC(=O)Cc3ccc(S(=O)(=O)CC)cc3)cc2)nc2cc(F)ccc21               83
 7  CCS(=O)(=O)c1ccc(CC(=O)Nc2ccc(OC3(c4ccc(Cl)c(Cl)c4)CCOCC3)cc2)cc1             87.7
 8  CCS(=O)(=O)c1ccc(CC(=O)Nc2ccc(OC3(c4ccc(Cl)c(F)c4)CC3)nc2)cc1             63.7
 9  CCS(=O)(=O)c1ccc(CC(=O)Nc2ccc(OC(C)(C)Cn3c(C)cc4cc(F)ccc43)c(F)c2)cc1             9.67
10  CCS(=O)(=O)c1ccc(CC(=O)Nc2ccc(OC(C)(C)c3noc(-c4ccc(Cl)cc4)n3)cc2)cc1             61.1
11  CCS(=O)(=O)c1ccc(CC(=O)Nc2ccc3c(c2)nc(C(C)(C)Oc2ccc(F)cc2F)n3CCN(C)C)cc1             15.6
12  CCS(=O)(=O)c1ccc(CC(=O)Nc2ccc(C#CCOc3ccc(Cl)cc3Cl)cc2)cc1             92.6
13  CCn1c(C(C)(C)Oc2ccc(NC(=O)Cc3ccc(S(=O)(=O)CC)cc3)cc2)nc2cccc(Cl)c21             85.5
14  CCS(=O)(=O)c1ccc(CC(=O)Nc2ccc(C#CC(C)(C)Oc3ccc(C#N)cc3)cc2)cc1             79.9

----------
Molecular target: GST-tagged ROR gamma ligand binding domain (LBD) (Homo sapiens)
Construct: purchased Invitrogen
Test: TR-FRET assay for ROR gamma (LanthaScreen co-activator peptide recruitment)
Format: biochemical
Settings: compound 1 μM; TR-FRET ratio 520/495, percent of control
# reported inhibition at 1 µM; entries follow
metric-name: inhibition at 1 µM

                                   molecule                              study_system         metric_name  result
0  CCS(=O)(=O)c1ccc(CC(=O)Nc2ccc3c(c2)nc(C(C)(C)Oc2ccc(Cl)cc2F)n3C)cc1 [Example 83]  GST-tagged ROR gamma ligand binding domain (LBD) (Homo sapiens)  inhibition at 1 µM   83.3%
1  CCS(=O)(=O)c1ccc(CC(=O)Nc2ccc(OC(C)(C)c3ncc(Cl)cc3Cl)c(F)c2)cc1 [Example 95]  GST-tagged ROR gamma ligand binding domain (LBD) (Homo sapiens)  inhibition at 1 µM   75.7%
2  CCS(=O)(=O)c1ccc(CC(=O)Nc2ccc(OC3(c4ccc(Cl)cc4F)CCOCC3)cc2)cc1 [Example 36]  GST-tagged ROR gamma ligand binding domain (LBD) (Homo sapiens)  inhibition at 1 µM   69.9%
3  CCS(=O)(=O)c1ccc(CC(=O)Nc2ccc(OC3(c4ccc(Cl)c(F)c4)COC3)cc2)cc1 [Example 45]  GST-tagged ROR gamma ligand binding domain (LBD) (Homo sapiens)  inhibition at 1 µM   76.8%

----------
# reported inhibition at 10 µM; entries follow
Molecular target: GST-tagged ROR gamma ligand binding domain (LBD) (Homo sapiens)
Construct: purchased Invitrogen
Sequence (P51449 269-508 limits assumed): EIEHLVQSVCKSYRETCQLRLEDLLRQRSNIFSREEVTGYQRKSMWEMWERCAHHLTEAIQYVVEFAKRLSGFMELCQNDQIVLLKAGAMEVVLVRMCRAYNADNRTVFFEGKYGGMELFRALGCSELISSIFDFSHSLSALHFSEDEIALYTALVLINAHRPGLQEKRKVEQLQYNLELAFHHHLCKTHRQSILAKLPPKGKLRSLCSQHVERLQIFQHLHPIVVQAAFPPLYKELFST
Experiment: TR-FRET assay for ROR gamma (LanthaScreen co-activator peptide recruitment)
Type: biochemical
Details: compound 10 μM; TR-FRET ratio 520/495, percent of control
metric-name: inhibition at 10 µM (%)

>>> print(df.to_string())
                                   compound                              study_system          metric_name  measure_unit  recorded_number
0  CCS(=O)(=O)c1ccc(CC(=O)Nc2ccc(OC(C)(C)Cn3ccc4cc(Cl)ccc43)cc2)cc1 [Example 29]  GST-tagged ROR gamma ligand binding domain (LBD) (Homo sapiens)  inhibition at 10 µM             %             82.8
1  CCS(=O)(=O)c1ccc(CC(=O)Nc2ccc(OC(C)(C)c3ncc(Cl)cc3Cl)cc2)cc1 [Example 11]  GST-tagged ROR gamma ligand binding domain (LBD) (Homo sapiens)  inhibition at 10 µM             %               89
2  CCS(=O)(=O)c1ccc(CC(=O)Nc2ccc3c(c2)nc(C(C)(C)Oc2ccc(Cl)cc2F)n3C)cc1 [Example 83]  GST-tagged ROR gamma ligand binding domain (LBD) (Homo sapiens)  inhibition at 10 µM             %               92
3  CCS(=O)(=O)c1ccc(CC(=O)Nc2ccc(OC(C)(C)c3noc(-c4ccc(Cl)cc4)n3)cc2)cc1 [Example 28]  GST-tagged ROR gamma ligand binding domain (LBD) (Homo sapiens)  inhibition at 10 µM             %             84.4
4  CCS(=O)(=O)c1ccc(CC(=O)Nc2ccc(C#CC(C)(C)Oc3ccc(Cl)cc3)cc2)cc1 [Example 64]  GST-tagged ROR gamma ligand binding domain (LBD) (Homo sapiens)  inhibition at 10 µM             %             84.2
5  CCS(=O)(=O)c1ccc(CC(=O)Nc2ccc(OC3(c4ccc(Cl)c(Cl)c4)COC3)cc2)cc1 [Example 46]  GST-tagged ROR gamma ligand binding domain (LBD) (Homo sapiens)  inhibition at 10 µM             %             86.3
6  CCS(=O)(=O)c1ccc(CC(=O)Nc2ccc(OC3(c4ccc(F)c(F)c4)CCOCC3)cc2)cc1 [Example 35]  GST-tagged ROR gamma ligand binding domain (LBD) (Homo sapiens)  inhibition at 10 µM             %             86.7
